# assayed-system: UniProt:O60674
# test-summary: Enzyme assay (Assay Example^a 1), JAK2
# Format: biochemical
# measurement-parameters: ATP 100 μM; Table^a 154
Note to self: use Met only for IC50 readings below 0.04 µM; a reading exactly at 0.04 µM still gets Not met.

// query Hello, I'm reviewing records and need to know if IC50 of c1cc2c(ncn3nnc(C4CCCCCC4)c23)[nH]1 is below 0.04 µM. Could you check?
// result Met

// query Take the compound O=C([C@H]1CC[C@H](c2nnn3cnc4[nH]ccc4c23)CC1)N1CC[C@H](F)C1 and say whether its IC50 is less than 0.04 µM.
// result Not met

// query Given O=C(Nc1ccc(F)cc1)[C@H]1CC[C@H](c2nnn3cnc4[nH]ccc4c23)CC1 , is recorded IC50 strictly lower than 0.04 µM?
// result Not met

// query Decide: IC50 of c1csc(CN2CCC(c3nnn4cnc5[nH]ccc5c34)CC2)n1 strictly below 0.04 µM?
// result Not met

// query Given Fc1ccc(CN2CCC(c3nnn4cnc5[nH]ccc5c34)CC2)c(F)c1 , is recorded IC50 strictly lower than 0.04 µM?
// result Met

// query Confirm or reject: IC50 of Clc1ccc(CCN[C@H]2CC[C@H](c3nnn4cnc5[nH]ccc5c34)CC2)cc1 [198b] lies strictly below 0.04 µM
// result Met

// query Find out if reported IC50 for N#CC1CCN(C[C@H]2CC[C@H](c3nnn4cnc5[nH]ccc5c34)CC2)CC1 is less than 0.04 µM
// result Not met

// query API: query returns whether the compound falls strictly under 0.04 µM in IC50. Query: C[C@H](O)CNC[C@H]1CC[C@H](c2nnn3cnc4[nH]ccc4c23)CC1
// result Not met

// query is_below(IC50, 0.04 µM) for c1ccc(CCNC[C@H]2CC[C@H](c3nnn4cnc5[nH]ccc5c34)CC2)cc1 ?
// result Not met

// query API: query returns whether the compound falls strictly under 0.04 µM in IC50. Query: FC(F)(F)c1ccc(CN[C@H]2CC[C@H](c3nnn4cnc5[nH]ccc5c34)CC2)cc1 [138b]
// result Not met

// query I wonder whether Clc1ccc(NC2CCC(c3nnn4cnc5[nH]ccc5c34)CC2)cc1 (centres unmarked) has IC50 below 0.04 µM. Can you tell?
// result Not met

// query Report whether reported IC50 is lower than 0.04 µM (strictly) for O=C(CC(F)(F)F)N1CCCC(c2nnn3cnc4[nH]ccc4c23)C1 (racemic)
// result Not met

// query Given the entry CN(C[C@H]1CC[C@H](c2nnn3cnc4[nH]ccc4c23)CC1)c1ccc(C#N)cc1 , would its reported IC50 be below 0.04 µM?
// result Met

// query IC50 under 0.04 µM? Item: Clc1ccc(CNC[C@H]2CC[C@H](c3nnn4cnc5[nH]ccc5c34)CC2)cc1
// result Met

// query Hello, I'm reviewing records and need to know if IC50 of N#Cc1ccc(CN[C@H]2CC[C@@H](c3nnn4cnc5[nH]ccc5c34)CC2)cc1 [137a] is below 0.04 µM. Could you check?
// result Not met

// query Given the entry Cc1cnc(CNC[C@H]2CC[C@H](c3nnn4cnc5[nH]ccc5c34)CC2)cn1 , would its reported IC50 be below 0.04 µM?
// result Not met

###

# assayed-system: JAK1 (Homo sapiens (Human), UniProt P23458)
# test-summary: Enzyme assay (Assay Example^a 1), JAK1
# Type: biochemical
# measurement-parameters: ATP 100 μM; Table^a 154
result-type: IC50 (µM)
Number in µM, nothing else.

// query For the molecule shown here, FC(F)(F)c1ccc(CN2CCC(c3[nH]c(=S)n4cnc5[nH]ccc5c34)CC2)cc1 , give the reported IC50.
// result 0.02

// query Could you share which IC50 value was measured for N#Cc1ccc(CN[C@H]2CC[C@H](c3nnn4cnc5[nH]ccc5c34)CC2)cc1 [137b] ?
// result 0.0041

// query Tell me the measured IC50 of FC(F)(F)C1CCC(N2CCC(c3nnn4cnc5[nH]ccc5c34)CC2)CC1 (single isomer, unassigned) [56b] , please.
// result 0.035

// query Would you kindly share the measured IC50 for FC(F)(F)c1cc(CN2CCC(c3nnn4cnc5[nH]ccc5c34)CC2)ccc1Cl ?
// result 0.011

###

Task for the reader: assign each of the following compounds its reported IC50.
# assayed-system: Tyk2 (Homo sapiens (Human), UniProt P29597)
# Sequence (P29597 whole entry): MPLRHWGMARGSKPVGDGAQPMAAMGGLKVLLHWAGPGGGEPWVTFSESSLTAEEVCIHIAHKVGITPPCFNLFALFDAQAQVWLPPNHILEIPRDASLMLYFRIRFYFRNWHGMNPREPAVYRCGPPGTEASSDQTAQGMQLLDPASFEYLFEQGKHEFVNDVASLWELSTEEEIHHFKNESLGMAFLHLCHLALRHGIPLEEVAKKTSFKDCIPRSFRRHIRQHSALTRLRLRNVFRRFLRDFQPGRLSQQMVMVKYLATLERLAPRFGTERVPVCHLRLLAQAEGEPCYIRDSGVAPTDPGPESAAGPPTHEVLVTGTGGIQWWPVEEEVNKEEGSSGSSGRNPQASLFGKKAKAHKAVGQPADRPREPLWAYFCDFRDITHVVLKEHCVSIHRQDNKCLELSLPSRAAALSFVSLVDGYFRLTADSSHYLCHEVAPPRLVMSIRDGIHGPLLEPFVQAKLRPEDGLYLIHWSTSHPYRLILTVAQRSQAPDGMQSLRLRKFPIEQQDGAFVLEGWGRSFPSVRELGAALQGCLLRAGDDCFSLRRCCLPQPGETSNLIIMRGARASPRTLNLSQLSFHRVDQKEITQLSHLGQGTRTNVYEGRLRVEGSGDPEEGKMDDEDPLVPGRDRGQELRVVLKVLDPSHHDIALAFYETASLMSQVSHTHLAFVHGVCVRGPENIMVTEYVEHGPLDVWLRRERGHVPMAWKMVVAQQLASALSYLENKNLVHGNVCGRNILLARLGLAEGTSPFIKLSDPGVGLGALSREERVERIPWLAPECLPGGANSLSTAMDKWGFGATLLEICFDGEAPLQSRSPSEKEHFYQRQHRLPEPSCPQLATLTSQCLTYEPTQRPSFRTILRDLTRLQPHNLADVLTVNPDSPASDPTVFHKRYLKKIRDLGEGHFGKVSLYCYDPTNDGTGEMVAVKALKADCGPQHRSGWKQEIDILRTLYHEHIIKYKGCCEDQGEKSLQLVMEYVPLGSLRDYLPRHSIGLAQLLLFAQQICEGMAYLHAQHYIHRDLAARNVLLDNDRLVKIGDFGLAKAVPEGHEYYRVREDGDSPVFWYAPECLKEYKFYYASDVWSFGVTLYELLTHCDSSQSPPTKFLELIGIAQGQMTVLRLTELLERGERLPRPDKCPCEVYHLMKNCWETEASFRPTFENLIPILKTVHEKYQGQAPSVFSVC
# test-summary: Enzyme assay (Assay Example^a 1), Tyk2
# Assay type: biochemical
# measurement-parameters: ATP 100 μM; Table^a 154
Where a name gives a salt, the structure may show the parent alone.
# output: bare number, implied unit µM

// query API: value(readout= IC50, system= Tyk2 (Homo sapiens (Human), UniProt P29597), query= Fc1cnccc1CN1CCC(c2nnn3cnc4[nH]ccc4c23)CC1 )
// result 0.14

// query Missing value: IC50, Tyk2 (Homo sapiens (Human), UniProt P29597), entry Clc1ccc(CN[C@H]2CC[C@H](c3nnn4cnc5[nH]ccc5c34)CC2)cc1 [197b] . Fill in?
// result 0.11

// query Observed IC50 on Tyk2 (Homo sapiens (Human), UniProt P29597) for C[C@@H](O)CNC[C@H]1CC[C@H](c2nnn3cnc4[nH]ccc4c23)CC1 , please.
// result 0.13

// query Tell me reported IC50 for O=C(N[C@H]1CC[C@H](c2nnn3cnc4[nH]ccc4c23)CC1)OCc1ccccc1 , tested with Tyk2 (Homo sapiens (Human), UniProt P29597).
// result 4.2

// query State its IC50 on Tyk2 (Homo sapiens (Human), UniProt P29597): OC(CN[C@H]1CC[C@H](c2nnn3cnc4[nH]ccc4c23)CC1)(c1ccc(F)cc1)C(F)(F)F (mixture of isomers) [200b]
// result 0.24

// query Form field - read-out: IC50; system: Tyk2 (Homo sapiens (Human), UniProt P29597); submitted item: c1ccc(CN[C@H]2CC[C@H](c3nnn4cnc5[nH]ccc5c34)CC2)cc1 [194b]
// result 0.11

// query Can you look up IC50 on Tyk2 (Homo sapiens (Human), UniProt P29597) for c1ccc(CNC[C@H]2CC[C@H](c3nnn4cnc5[nH]ccc5c34)CC2)cc1 ?
// result 0.0055

// query Under Tyk2 (Homo sapiens (Human), UniProt P29597): IC50 value of CN(C)[C@H]1CCN(C[C@H]2CC[C@H](c3nnn4cnc5[nH]ccc5c34)CC2)C1 ?
// result 0.49

// query API: value(readout= IC50, system= Tyk2 (Homo sapiens (Human), UniProt P29597), query= OC(CN1CCC(c2nnn3cnc4[nH]ccc4c23)CC1)c1ccc(C(F)(F)F)cc1 (racemic) )
// result 0.45

// query Param readout= IC50; system= Tyk2 (Homo sapiens (Human), UniProt P29597); entry= C[C@H](O)CNC[C@H]1CC[C@H](c2nnn3cnc4[nH]ccc4c23)CC1 ; returns value.
// result 0.087

// query API: value(readout=IC50, system=Tyk2 (Homo sapiens (Human), UniProt P29597)) for record Fc1ccc(CN2CCC(c3nnn4cnc5[nH]ccc5c34)CC2)c(F)c1
// result 0.29

// query Tyk2 (Homo sapiens (Human), UniProt P29597) / IC50 / FC(F)(F)c1ccc(CN[C@H]2CC[C@@H](c3nnn4cnc5[nH]ccc5c34)CC2)cc1 [138a] : value?
// result 0.25

// query Which IC50 is reported with Tyk2 (Homo sapiens (Human), UniProt P29597) for this entry: Clc1cc(CN2CCC(c3nnn4cnc5[nH]ccc5c34)CC2)ccn1 ?
// result 0.26

// query API: value(readout= IC50, system= Tyk2 (Homo sapiens (Human), UniProt P29597), query= c1nc(CCNC[C@H]2CC[C@H](c3nnn4cnc5[nH]ccc5c34)CC2)c[nH]1 [compound 192, hydrochloride] )
// result 0.1

###

Could you please report measured IC50 for the items listed next?
# assayed-system: JAK2 (Homo sapiens (Human))
# test-summary: Enzyme assay (Assay Example^a 1), JAK2
# Format: biochemical
# measurement-parameters: ATP 100 μM
Returns: string containing the number followed by the unit.

// query Need IC50, item N#Cc1cc(NC[C@H]2CC[C@H](c3nnn4cnc5[nH]ccc5c34)CC2)ccc1F [compound 252]
// result 0.06 µM

// query Quick one: IC50 of OCCN(C[C@H]1CC[C@H](c2nnn3cnc4[nH]ccc4c23)CC1)C1CCCCC1 [compound 306] ?
// result 0.054 µM

// query May I ask what IC50 has been recorded for CC(C)(C)OC(=O)NCC1CCN(C[C@H]2CC[C@H](c3nnn4cnc5[nH]ccc5c34)CC2)CC1 [compound 336] ?
// result 0.37 µM

// query Entry CC(C)(C)OC(=O)N[C@H]1CCN(C[C@H]2CC[C@H](c3nnn4cnc5[nH]ccc5c34)CC2)C1 [compound 307] : reported IC50 = ?
// result 0.26 µM

// query Which IC50 is reported for this molecule? N#Cc1ccc(CCNC(=O)[C@H]2CC[C@H](c3nnn4cnc5[nH]ccc5c34)CC2)cc1 [compound 362]
// result 0.057 µM

// query Please report the recorded IC50 for c1cc2c(ncn3nnc([C@H]4CC[C@H](CN5CCC5)CC4)c23)[nH]1 [compound 286] .
// result 0.035 µM

// query Recorded IC50 of Brc1cc(CN2CCC(c3nnn4cnc5[nH]ccc5c34)CC2)sc1Br [compound 233] , please.
// result 0.071 µM

// query Any idea what its IC50 is? The molecule is O/N=C/[C@H]1CC[C@H](c2nnn3cnc4[nH]ccc4c23)CC1 [compound 429]
// result 0.035 µM

// query Data request, read-out IC50, for Fc1cc(C(F)(F)F)cc(F)c1CN1CCC(c2nnn3cnc4[nH]ccc4c23)CC1 [compound 224]
// result 0.012 µM

// query Any idea what IC50 was measured for CN(C)[C@H]1CC[C@H](c2nnn3cnc4[nH]ccc4c23)CC1 [397b] ?
// result 0.21 µM

// query Field request: IC50 | item: CC(C)(O)c1cn(C[C@H]2CC[C@H](c3nnn4cnc5[nH]ccc5c34)CC2)nn1 [compound 370]
// result 0.097 µM

// query // returns reported IC50 for input OCCN1CCN(C[C@H]2CC[C@H](c3nnn4cnc5[nH]ccc5c34)CC2)CC1 [compound 315]
// result 0.2 µM

// query // lookup IC50 for COCCN(CCOC)C[C@H]1CC[C@H](c2nnn3cnc4[nH]ccc4c23)CC1 [compound 326]
// result 0.31 µM

// query Which IC50 is listed for N#CC(C#N)=C[C@H]1CC[C@H](c2nnn3cnc4[nH]ccc4c23)CC1 [compound 431] ?
// result 0.013 µM

// query Would you mind telling me what IC50 value was observed for FC(F)(Br)CNC[C@H]1CC[C@H](c2nnn3cnc4[nH]ccc4c23)CC1 [compound 269] ?
// result 0.012 µM

// query Find the recorded IC50 belonging to CC(C)(O)C1CCN(C[C@H]2CC[C@H](c3nnn4cnc5[nH]ccc5c34)CC2)CC1 [compound 311] and report it.
// result 0.16 µM

// query Quick one: IC50 for c1cc2c(ncn3nnc(C4CCCCC4)c23)[nH]1 [compound 6] ?
// result 0.012 µM

// query Please give the measured IC50 for this molecule: O=C([C@H]1CC[C@H](c2nnn3cnc4[nH]ccc4c23)CC1)N1CC[C@H](O)C1 [compound 358]
// result 0.91 µM

// query What does the record list as IC50 for O=C(NC1CC1)[C@H]1CC[C@H](c2nnn3cnc4[nH]ccc4c23)CC1 [compound 359] ?
// result 0.22 µM

// query Which IC50 reading was recorded for the molecule O=C(C[C@H]1CC[C@@H](c2nnn3cnc4[nH]ccc4c23)CC1)NCC(F)(F)F [442a] ?
// result 0.061 µM

// query May I ask what IC50 has been recorded for N#CC1CN(C[C@H]2CC[C@H](c3nnn4cnc5[nH]ccc5c34)CC2)C1 [compound 281] ?
// result 0.05 µM

// query For O=C1SCCC1NC[C@H]1CC[C@H](c2nnn3cnc4[nH]ccc4c23)CC1 (stereo partly drawn) [compound 253] , what is its reported IC50?
// result 0.0066 µM

// query Field request: IC50 | item: CC1(O)CN(C[C@H]2CC[C@H](c3nnn4cnc5[nH]ccc5c34)CC2)C1 [compound 422]
// result 0.051 µM

// query Report IC50 for OC[C@H]1CCCN1C[C@H]1CC[C@H](c2nnn3cnc4[nH]ccc4c23)CC1 [compound 265] please.
// result 0.18 µM

// query Can you look up the measured IC50 of CN(CCC#N)C[C@H]1CC[C@H](c2nnn3cnc4[nH]ccc4c23)CC1 [compound 302] for me?
// result 0.029 µM

// query # query: IC50 of entry N#CCCN[C@H]1CC[C@H](c2nnn3cnc4[nH]ccc4c23)CC1 [394b]
// result 0.09 µM

// query Fill in: IC50 of N#CC1CC12CCC(c1nnn3cnc4[nH]ccc4c13)CC2 (stereo not drawn) [compound 444] is ___
// result 0.009 µM

// query Given O=C1OCCC1NC[C@H]1CC[C@H](c2nnn3cnc4[nH]ccc4c23)CC1 (stereo partly drawn) [compound 279] , state its recorded IC50.
// result 0.044 µM

// query Which IC50 reading was recorded for the molecule FC(F)(F)C(NC[C@H]1CC[C@H](c2nnn3cnc4[nH]ccc4c23)CC1)C(F)(F)F [compound 317] ?
// result 0.016 µM

// query Any idea what its IC50 is? The molecule is OC1CN(C[C@H]2CC[C@H](c3nnn4cnc5[nH]ccc5c34)CC2)C1 [compound 257]
// result 0.016 µM

// query Requested read-out: IC50. Entry: O=C([C@H]1CC[C@H](c2nnn3cnc4[nH]ccc4c23)CC1)N1CC(O)C1 [compound 361]
// result 0.25 µM

// query Which IC50 reading was recorded for the molecule Clc1n[nH]c2ccc(CN3CCC(c4nnn5cnc6[nH]ccc6c45)CC3)cc12 [compound 217] ?
// result 0.18 µM

// query Quick one: IC50 for c1cc2c(ncn3nnc([C@H]4CC[C@@H](CNC5CC5)CC4)c23)[nH]1 [compound 406] ?
// result 0.56 µM

Hello, the source for this data is patent US9216999B2, in case you need it.
